- tested.target: SIRT1 (Homo sapiens, UniProt Q96EB6)
- method.summary: TAMRA based mass spectrometry assay of SIRT1 activity
- Type: biochemical
- run.conditions: TAMRA assay; percent maximum fold activation; read-out: TAMRA % Fold Act
observation.type: Emax

Illustrative cases are given below, each with its answer.
* Cc1cc(NC(=O)c2c(C)nc3ccc(-c4ccccc4OC[C@H](O)CO)nn23)nc(C)n1 | ≥ 350%
* COc1cccc(C(=O)Nc2cnn3ccc(-c4ccccc4OC(F)(F)F)nc23)n1 | ≥ 350%
* O=C(Nc1cnc2ccc(-c3ccccc3Cl)nn12)c1ncccn1 | ≥ 350%
* O=C(Nc1cnc2ccc(-c3ccccc3OC(F)(F)F)nn12)c1cccc(N2CCOCC2)n1 | ≥ 350%
* COc1nccc(NC(=O)c2c(C)nn3ccc(-c4ccccc4C(F)(F)F)nc23)n1 | ≥ 350%
* O=C(Nc1cccnc1N1CCOCC1)c1cnc2ccc(-c3ccccc3C(F)(F)F)nn12 | < 350%

I am curious: what Emax value has been reported for "O=C(Nc1cnc2ccc(-c3ccccc3C(F)(F)F)nn12)c1cncc(OC[C@@H](O)CO)n1" ?
≥ 350%

Returns the measured Emax for the input compound. Input: "O=C(Nc1cnn2ccc(-c3ccccc3C(F)(F)F)nc12)c1ccccn1"
≥ 350%

Need Emax, item "Cc1ccc(C(=O)Nc2cnc3ccc(-c4ccccc4C(F)(F)F)nn23)cn1"
< 350%

I'd like to know its Emax. The compound in question is "Cc1nc2c(N3CCOCC3)cc(-c3ccccc3C(F)(F)F)nn2c1C(=O)Nc1cccnn1"
≥ 350%

Request the reported Emax associated with O=C(Nc1cccc(N2CCOCC2)n1)c1cnc2ccc(-c3ccccc3OCC(O)CO)nn12 (centres unmarked)
≥ 350%

Name the recorded Emax for "Cc1nc2ccc(-c3cccc(OC[C@H](O)CO)c3)nn2c1C(=O)Nc1ccccn1" .
≥ 350%

# get_value(readout='Emax', item= O=C(Nc1ccnc(OCC(O)CO)c1)c1cnc2ccc(-c3ccccc3F)nn12 (centres unmarked) )
< 350%

Given the compound "N#Cc1ccccc1-c1ccc2ncc(NC(=O)c3ccccn3)n2n1" , what is its reported Emax?
≥ 350%

---

- tested.target: SIRT1 (Homo sapiens, UniProt Q96EB6)
- method.summary: Trp mass spectrometry assay of SIRT1 activity
- Format: biochemical
- run.conditions: Trp assay; percent maximum fold activation; read-out: Trp % Fold Act
Below, each of the compounds is paired with its reported Emax value.

Worked examples, 5 compounds total:
* Cc1nc2ccc(N3CC[C@H](F)C3)nn2c1C(=O)Nc1cccnn1 | ≥ 350%
* Cc1nc2ccc(N3CCC(F)(F)C3)nn2c1C(=O)Nc1cncc(F)c1 | < 350%
* O=C(Nc1cnc2ccc(-c3ccccc3C(F)(F)F)nn12)c1cncc(OC[C@@H](O)CO)n1 | ≥ 350%
* CN1CCN(c2ccc3ncc(C(=O)Nc4cccnc4)n3n2)CC1 | < 350%
* Cc1nc2ccc(N3CC[C@H](N(C)C)C3)nn2c1C(=O)Nc1ccncc1F | < 350%

Please report the recorded Emax for "CCNc1cccc(NC(=O)c2cnc3ccc(-c4ccccc4F)nn23)n1" .
< 350%

Please give the measured Emax for this compound: "Cc1cc(C)nc(NC(=O)c2cnn3ccc(-c4ccccc4C(F)(F)F)nc23)n1"
≥ 350%

I would be grateful if you could share the reported Emax for "COc1cc(OC)nc(NC(=O)c2cnc3ccc(-c4ccccc4C(F)(F)F)nn23)n1" .
< 350%

---

- tested.target: SIRT1 (Homo sapiens, UniProt Q96EB6)
- Sequence (Q96EB6 1-747): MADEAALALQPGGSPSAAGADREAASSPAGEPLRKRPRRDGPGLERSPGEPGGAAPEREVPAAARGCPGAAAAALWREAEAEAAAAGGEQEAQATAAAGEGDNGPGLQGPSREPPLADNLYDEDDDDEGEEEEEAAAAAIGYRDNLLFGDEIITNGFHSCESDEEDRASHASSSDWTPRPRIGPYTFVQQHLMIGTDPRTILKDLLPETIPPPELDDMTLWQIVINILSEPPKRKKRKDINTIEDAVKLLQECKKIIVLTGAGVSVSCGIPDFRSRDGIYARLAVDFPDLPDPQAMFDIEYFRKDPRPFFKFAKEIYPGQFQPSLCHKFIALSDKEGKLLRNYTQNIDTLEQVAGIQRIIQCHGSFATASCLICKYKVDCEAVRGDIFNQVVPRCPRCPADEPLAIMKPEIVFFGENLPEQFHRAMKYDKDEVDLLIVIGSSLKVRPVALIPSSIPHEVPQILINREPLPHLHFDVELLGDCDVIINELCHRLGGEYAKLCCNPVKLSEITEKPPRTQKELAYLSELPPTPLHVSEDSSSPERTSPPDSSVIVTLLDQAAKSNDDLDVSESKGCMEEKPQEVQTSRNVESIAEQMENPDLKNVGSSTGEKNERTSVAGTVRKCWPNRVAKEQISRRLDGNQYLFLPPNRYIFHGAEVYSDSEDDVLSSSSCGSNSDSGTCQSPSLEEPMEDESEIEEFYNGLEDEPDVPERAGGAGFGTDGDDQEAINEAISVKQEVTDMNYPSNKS
- method.summary: TAMRA based mass spectrometry assay of SIRT1 activity
- Assay type: biochemical
- run.conditions: TAMRA assay; concentration giving 150% activation of SIRT1
observation.type: TAMRA EC1.5 (μM)

// worked examples, TAMRA EC1.5 (μM) included
• Cc1cc(C)c(NC(=O)c2cnn3ccc(-c4ccccc4C(F)(F)F)nc23)cn1 = B (EC1.5 1-25 μM)
• Cc1cccc(NC(=O)c2c(C)nn3ccc(-c4ccccc4C(F)(F)F)nc23)n1 = A (EC1.5<1 μM)
• Cc1cc(C(=O)Nc2cnc3ccc(-c4ccccc4C(F)(F)F)nn23)nc(C)n1 = A (EC1.5<1 μM)
• Cc1ccc(NC(=O)c2c(C)nn3ccc(-c4ccccc4C(F)(F)F)nc23)cn1 = A (EC1.5<1 μM)

Fill in the blank: the reported TAMRA EC1.5 (μM) of N#Cc1ccccc1-c1ccc2ncc(NC(=O)c3cccc(OCC(O)CO)n3)n2n1 (centres unmarked) is ____.
A (EC1.5<1 μM)

# TAMRA EC1.5 (μM) lookup, item "Cc1nc2ccc(-c3ccccc3OC[C@H](O)CO)nn2c1C(=O)Nc1ccc(F)cn1"
A (EC1.5<1 μM)

// TAMRA EC1.5 (μM) lookup, key: "Cc1cc(C)c(NC(=O)c2c(C)nn3ccc(-c4ccccc4C(F)(F)F)nc23)cn1"
B (EC1.5 1-25 μM)

# input compound: "N#Cc1ccccc1-c1ccc2ncc(NC(=O)c3cccc(N4CCOCC4)n3)n2n1" ; wanted: its TAMRA EC1.5 (μM)
A (EC1.5<1 μM)

---

- tested.target: SIRT1 (Homo sapiens)
- method.summary: TAMRA based mass spectrometry assay of SIRT1 activity
- Format: biochemical
- run.conditions: TAMRA assay; concentration giving 150% activation of SIRT1
observation.type: TAMRA EC1.5 (μM)

• Cc1nc2ccc(-c3ccccc3C(F)(F)F)nn2c1C(=O)Nc1ccnn1C [Compound 675] = C (EC1.5>25 μM)
• O=C(Nc1ccnc(OCC(O)CO)c1)c1cnc2ccc(-c3ccccc3F)nn12 (stereo not shown) [Compound 284] = C (EC1.5>25 μM)
• O=C(Nc1ncccn1)c1c(O)nc2ccc(-c3ccccc3C(F)(F)F)nn12 [Compound 342] = C (EC1.5>25 μM)

---

- tested.target: UniProt Q96EB6
- Sequence (Q96EB6 1-747): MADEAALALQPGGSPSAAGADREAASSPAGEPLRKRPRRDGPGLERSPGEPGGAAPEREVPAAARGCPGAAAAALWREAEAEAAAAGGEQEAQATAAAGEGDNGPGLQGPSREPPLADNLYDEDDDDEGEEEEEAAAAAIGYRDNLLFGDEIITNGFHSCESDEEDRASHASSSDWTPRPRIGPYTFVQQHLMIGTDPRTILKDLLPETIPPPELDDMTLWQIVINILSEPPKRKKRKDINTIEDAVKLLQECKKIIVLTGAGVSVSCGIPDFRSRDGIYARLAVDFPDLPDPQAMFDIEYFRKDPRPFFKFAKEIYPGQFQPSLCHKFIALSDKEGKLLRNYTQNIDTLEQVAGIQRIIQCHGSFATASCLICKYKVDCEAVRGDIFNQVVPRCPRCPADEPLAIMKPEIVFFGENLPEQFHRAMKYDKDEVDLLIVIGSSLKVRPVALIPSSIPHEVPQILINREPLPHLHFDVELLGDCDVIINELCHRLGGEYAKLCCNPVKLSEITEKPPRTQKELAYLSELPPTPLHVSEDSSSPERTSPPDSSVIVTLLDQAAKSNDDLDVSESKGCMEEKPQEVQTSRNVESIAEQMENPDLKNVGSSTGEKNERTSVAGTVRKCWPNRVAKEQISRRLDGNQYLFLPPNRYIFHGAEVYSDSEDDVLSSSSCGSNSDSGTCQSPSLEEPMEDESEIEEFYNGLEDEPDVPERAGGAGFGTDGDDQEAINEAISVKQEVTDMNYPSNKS
- method.summary: Trp mass spectrometry assay of SIRT1 activity
- Type: biochemical
- run.conditions: Trp assay; concentration giving 150% activation of SIRT1
observation.type: Trp EC1.5 (μM)

- O=C(Nc1cnn2ccc(-c3ccccc3C(F)(F)F)nc12)c1cccc(-n2cnnc2)n1 [Compound 748]: B (EC1.5 1-25 μM)
- Cc1nc2ccc(N3CC[C@H](N(C)C)C3)nn2c1C(=O)Nc1ccc(F)cn1 [Compound 872]: C (EC1.5>25 μM)
- Cc1cnc(C(=O)Nc2c(C)nc3ccc(-c4ccccc4Cl)nn23)s1 [Compound 354]: C (EC1.5>25 μM)
- COc1ccc(NC(=O)c2c(C)nc3ccc(-c4cccc(F)c4)nn23)nn1 [Compound 761]: A (EC1.5<1 μM)
- Cc1nc2c(OC[C@H](O)CO)cc(-c3ccccc3C(F)(F)F)nn2c1C(=O)Nc1ccc(F)cn1 [Compound 835]: A (EC1.5<1 μM)
- O=C(Nc1cccnn1)c1cnc2ccc(-c3ccccc3OC(F)(F)F)nn12 [Compound 395]: A (EC1.5<1 μM)
- O=C(Nc1ccncn1)c1cnc2ccc(N3CCCC3)nn12 [Compound 894]: B (EC1.5 1-25 μM)
- Cc1cccnc1C(=O)Nc1cnn2ccc(-c3ccccc3C(F)(F)F)nc12 [Compound 746]: C (EC1.5>25 μM)

Dear colleague, I am looking for the recorded Trp EC1.5 (μM) of the following compound: Cc1cc2ncc(C(=O)Nc3cccnc3)n2nc1-c1ccccc1C(F)(F)F [Compound 210]
B (EC1.5 1-25 μM)
